Origin of the recorded values: paper PMC5622107

TARGET ENTITY: mouse cGAS (Mus musculus, UniProt Q8C6L5)
Construct: recombinant full-length mouse cGAS in reaction buffer; His6-SUMO (N, cleaved yes); made in house; host or cells: E. coli BL21(DE3) RIL
Sequence (Q8C6L5 whole entry): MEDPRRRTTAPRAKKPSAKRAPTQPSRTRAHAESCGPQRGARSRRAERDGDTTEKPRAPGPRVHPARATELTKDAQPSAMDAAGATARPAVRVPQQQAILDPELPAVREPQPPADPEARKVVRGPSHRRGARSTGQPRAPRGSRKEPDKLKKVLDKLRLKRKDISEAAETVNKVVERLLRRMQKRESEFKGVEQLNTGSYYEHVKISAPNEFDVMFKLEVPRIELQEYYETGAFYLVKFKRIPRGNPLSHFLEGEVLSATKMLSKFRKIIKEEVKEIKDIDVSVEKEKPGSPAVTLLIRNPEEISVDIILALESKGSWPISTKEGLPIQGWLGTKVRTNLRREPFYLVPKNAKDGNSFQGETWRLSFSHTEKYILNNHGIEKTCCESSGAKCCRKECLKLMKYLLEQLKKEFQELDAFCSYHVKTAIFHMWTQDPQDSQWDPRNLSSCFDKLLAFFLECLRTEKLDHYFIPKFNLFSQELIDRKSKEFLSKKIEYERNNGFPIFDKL
ASSAY PROCEDURE: RapidFire mass spectrometry (RF-MS) cGAS enzymatic assay, cGAMP product formation
Format: biochemical
OBSERVABLE: IC50 (nM)
I only need the number, in nM, no unit after it.

Exercise: Fill in IC50 for record O=[N+]([O-])c1ccc(O)c([N+](=O)[O-])c1
Key: 870

Exercise: For N=C(N)NN=C1C=CC(=NNC(N)=S)C=C1 , write its IC50.
Key: 9930

Exercise: State, in one line, measured IC50 of COc1cccc2c1C(=O)c1c(O)c3c(c(O)c1C2=O)C[C@@](O)(C(=O)CO)C[C@@H]3O[C@H]1C[C@H](N)[C@H](O)[C@H](C)O1
Key: 820

Exercise: In one line, give reported IC50 of the entry Oc1c(Cl)cc(Cl)c(Cl)c1Cc1c(O)c(Cl)cc(Cl)c1Cl .
Key: 390

Exercise: Could you please provide reported IC50 for COc1cccc2c1C(=O)c1c(O)c3c(c(O)c1C2=O)C[C@@](O)(C(=O)CO)C[C@@H]3O[C@H]1C[C@H](N)[C@@H](O)[C@H](C)O1 ? Thanks!
Key: 580
